TGI overview
# System: SK-MEL-5 melanoma
# Test details: NCI tumour cell line growth inhibition, 48 h

{"Molecule": "Cc1nn(C(=O)c2ccc(Cl)cc2)c2c1C(c1ccccc1[N+](=O)[O-])SC(N)=N2 (configuration not stated)", "Qualifier sign": ">", "TGI / µM": 10}
{"Molecule": "CN1CCN(c2ncc3c(n2)sc2c(=O)n(-c4ccccc4)cnc23)CC1", "Qualifier sign": ">", "TGI / µM": 100}
{"Molecule": "Cc1cc(Cl)ccc1Nc1nc(C(F)(F)F)ccc1C(=O)N/N=C/c1ccc(Cl)cc1", "Qualifier sign": "=", "TGI / µM": 3.02}
{"Molecule": "CC1OC(OC2C[C@](O)(C(=O)CF)Cc3c(O)c4c(c(O)c32)C(=O)c2ccccc2C4=O)CC(N)C1O (some centres not stated)", "Qualifier sign": "=", "TGI / µM": 0.0657}
{"Molecule": "Cc1ccc(N(C(=O)Nc2ccccc2)C2=NCC(C)S2)cc1C (configuration not stated)", "Qualifier sign": "=", "TGI / µM": 30.7}
{"Molecule": "Cc1cc(O)c(C2=NN(c3ccc(S(N)(=O)=O)cc3)C(c3ccccc3Cl)C2)cc1Cl (configuration not stated)", "Qualifier sign": "=", "TGI / µM": 12.3}
{"Molecule": "COc1ccc(N=Cc2ccc(N(CCC#N)S(=O)(=O)c3ccccc3)cc2)cc1", "Qualifier sign": ">", "TGI / µM": 100}
{"Molecule": "Nc1cccc(/C=C/C(=O)N2CCN(CCOC(c3ccccc3)c3ccccc3)CC2)c1", "Qualifier sign": "=", "TGI / µM": 29.4}
{"Molecule": "[N-]=[N+]=CC(=O)c1ccccc1C#CCCc1ccccc1", "Qualifier sign": "=", "TGI / µM": 32.2}
{"Molecule": "O=C(Nc1cccc(-n2cc(-c3ccncc3)c(-c3cc(O)cc(Cl)c3)n2)c1)Nc1ccc(Cl)c(C(F)(F)F)c1", "Qualifier sign": "=", "TGI / µM": 3.23}
{"Molecule": "CCCCCCCCC/C=C/C=C/C(=O)NCC(=O)NC1C(O)C(O)C(Nc2ncnc3nc[nH]c23)OC1C(O)CO (configuration not stated)", "Qualifier sign": "=", "TGI / µM": 0.12}
{"Molecule": "COc1c(O)cc2oc(-c3ccc(O)cc3)cc(=O)c2c1O", "Qualifier sign": "=", "TGI / µM": 63.7}
{"Molecule": "O=C(CCc1ccc(O)c(O)c1)NCCc1cc(O)cc(O)c1", "Qualifier sign": ">", "TGI / µM": 100}
{"Molecule": "COC(=O)[C@@]12OC[C@]34[C@H]([C@@H](O)[C@@H]1O)[C@@]1(C)[C@H](O)C(=O)C=C(C)[C@@H]1C[C@H]3OC(=O)C(OC(C)=O)[C@@H]24 (some centres not stated)", "Qualifier sign": "=", "TGI / µM": 0.0406}
{"Molecule": "C1COCCN1.C1COCCN1.NC1CCCCC1N.[Cl-].[Pt+2] (configuration not stated)", "Qualifier sign": ">", "TGI / µM": 100}
{"Molecule": "COC(=O)CNS(=O)(=O)c1ccc(-c2c3nc(c(-c4ccc(S(=O)(=O)NCC(=O)OC)cc4)c4ccc([nH]4)c(-c4ccc(S(=O)(=O)NCC(=O)OC)cc4)c4nc(c(-c5ccc(S(=O)(=O)NCC(=O)OC)cc5)c5ccc2[nH]5)C=C4)C=C3)cc1", "Qualifier sign": ">", "TGI / µM": 100}
{"Molecule": "C[C@H](NC(=O)c1ccc(CNC(=O)/C=C/c2cccc(Oc3ccccc3)c2)cc1)c1ccccc1", "Qualifier sign": ">", "TGI / µM": 100}
